Data credit: PubChem BioAssay (NCATS)

assayedTarget: Cytochrome P450 2C9 (Homo sapiens) (UniProt P11712)
Sequence (P11712 whole entry, looked up): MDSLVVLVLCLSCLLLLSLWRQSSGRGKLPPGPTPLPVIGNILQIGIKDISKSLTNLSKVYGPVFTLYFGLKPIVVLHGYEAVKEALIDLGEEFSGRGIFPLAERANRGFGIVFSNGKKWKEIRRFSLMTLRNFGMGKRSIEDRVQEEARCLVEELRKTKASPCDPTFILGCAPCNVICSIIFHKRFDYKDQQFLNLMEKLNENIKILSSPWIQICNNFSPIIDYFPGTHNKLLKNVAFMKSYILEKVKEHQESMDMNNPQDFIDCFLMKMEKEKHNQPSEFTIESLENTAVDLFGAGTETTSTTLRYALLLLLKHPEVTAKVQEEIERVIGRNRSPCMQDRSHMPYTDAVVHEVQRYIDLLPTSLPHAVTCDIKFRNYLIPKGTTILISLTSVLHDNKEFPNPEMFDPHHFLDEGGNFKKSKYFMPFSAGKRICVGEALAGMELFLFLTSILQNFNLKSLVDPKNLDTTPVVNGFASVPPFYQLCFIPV
methodNotes: Cytochrome P450 family 2 subfamily C member 9 (CYP2C9) small molecule antagonists: luciferase biochemical (cell-free) qHTS assay (AID 1645842); note: nearly all actives have a fitted effect of over 55% in size
conditionsUsed: P450-Glo CYP2C9 enzyme assay, luciferin luminescence; series mostly up to 57.4 µM
Excerpt: National Center for Advancing Translational Sciences [NCATS] Assay Overview: Cytochrome P450 (CYP) enzymes are membrane-bound hemeproteins that play a key role in metabolism of drugs and xenobiotics. Assaying the effect of chemicals on CYP isozymes is useful to minimize the adverse drug reactions and toxicities in drug development process. […] The luciferin products formed are detected with a luciferin detection reagent, and the amount of light produced is proportional to CYP activity. […]
Results filed as inconclusive are left out. The source made the active and inactive calls. Calls come from the whole dose curve; as a rule, active = well fitted inhibition curve with a large enough effect in the repeat runs; inconclusive = weak or mixed curves; inactive = no such curve, though single readings can be large or run the other way.
Pick one: TRUE = active, FALSE = inactive

Worked examples follow.
INSERT INTO measurements (molecule, class) VALUES
  ('CC(C)(C)Oc1ccc(OCC2Cc3ccccc3CN2C(=O)c2cccc3ccccc23)cc1 (stereo unspecified)', 'TRUE'),
  ('CC(C)CCNC(=O)c1ccc2c(c1)nc(Nc1n[nH]c3ccc(-c4ccccc4OC(F)(F)F)cc13)n2C1CCC(O)CC1 (stereo unspecified)', 'TRUE'),
  ('Cn1ncc(Cl)c1-c1cc(C(=O)NC(CN)Cc2ccc(F)c(F)c2)oc1Cl (stereo unspecified)', 'TRUE'),
  ('CC1=C(C(=O)OC2CCCCC2)C(c2ccc([N+](=O)[O-])cc2)C2=C(CC(C)(C)CC2=O)N1 (stereo unspecified)', 'TRUE'),
  ('CCNC1(C(N)=O)CCN(c2ncnc3c2nc(-c2ccccc2Cl)n3-c2ccc(Cl)cc2)CC1', 'TRUE');

Outcome logged for CC(C)OC(=O)N1CCC(Oc2ncnc3c2cnn3-c2ccc(S(C)(=O)=O)cc2F)CC1 in this assay:
TRUE

Please indicate how the test categorized C=CC(=O)Nc1ccc2ncnc(Nc3cccc(Br)c3)c2c1 .
TRUE

Query: recorded result category for CN(C)CCOc1cc(NS(=O)(=O)c2c(Cl)cc(C(F)(F)F)cc2Cl)ccc1Cl in this test
TRUE
